B1: DnaJ homolog subfamily C member 2, residues 451 to 503; numbered along this chain, Q99543 (parent)
chain: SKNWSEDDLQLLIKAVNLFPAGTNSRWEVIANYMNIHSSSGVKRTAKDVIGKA

# Variants of: B1
# assay_info: abundance fitness (aPCA) (normalised: wild type 0, dead -1); higher = more abundant; growth selection in yeast, the domain comes from the species named
# condition_context: Homo sapiens
abundance fitness below -0.1 gives criterion not met; abundance fitness at or above it gives criterion met.

| residue_sequence | class_label |
| --- | --- |
| SKNWSEDDKQLLIKAVNLFPAGTNSRWEVIANYMNIHSSSGVKRTAKDVIGKA | criterion met |
| SKNWSEDDLQLLIKAVNLFPAGTNSRWEVIAWYMNIHSSSGVKRTAKDVIGKA | criterion not met |
| SKNWSEDDLQLLIKAVNLFPAGTNSRYEVIANYMNIHSSSGVKRTAKDVIGKA | criterion not met |
| SKNWSEDDLQLLIKAVNLFPAGTNSRWEVIANYMNIHSSSNVKRTAKDVIGKA | criterion not met |
| SKNWSEDDLQLLDKAVNLFPAGTNSRWEVIANYMNIHSSSGVKRTAKDVIGKA | criterion met |
| SKNWSEDDLQLLIKAVNLFPAGTNSRWEVIANYMNIHSSSGVSRTAKDVIGKA | criterion not met |
| SKNWSEDDLQLLIKAVNLFPAGTNSRWEVIANYMNIHSSSGVKRTAKDVIGQA | criterion met |
| SKNWSEDDLQLLIKAVNLFPAGTNSRWEVILNYMNIHSSSGVKRTAKDVIGKA | criterion not met |

Now let's try a different one.
Ask: API: above_or_equal(metric=abundance fitness, cutoff=-0.1) for item "SKNWSEDPLQLLIKAVNLFPAGTNSRWEVIANYMNIHSSSGVKRTAKDVIGKA"
Reply: criterion not met
